Tested on: HT-29
protocol: NCI tumour cell line growth inhibition, 48 h
Active and inactive are the calls of the source. Cut-off read from the data, not from the text of the source: active = GI50 up to about 1.1 µM and inactive = higher. Residues, ends and D or L forms follow the SMILES beside them. *: point of attachment. Boc = CC(C)(C)OC(=O)*
readout_name: GI50

molecule | readout_name | value_measured
COc1cccc2c1OC(c1ccc(Cl)cc1)C([N+](=O)[O-])=C2 (stereo not given) | GI50 | 1.35 µM (inactive)
O=[N+]([O-])c1cccc(-c2ccc([C@H]3CC(c4ccc(Cl)cc4)=NN3)o2)c1 | GI50 | 21.3 µM (inactive)
COc1ccc2c(c1)Oc1cc(O)ccc1[C@H]2c1ccccc1C(=O)NC(C)c1ccccc1 (stereo not given in full) | GI50 | 19.9 µM (inactive)
CCOC(=O)C1(C/C=C(/C)Cl)CCCC1=O (stereo not given) | GI50 | > 100 µM (inactive)
NNC(=S)N/N=C(/C(=O)Nc1ccc(Cl)c(Cl)c1)C(C1OC(=O)c2ccccc21)[N+](=O)[O-] (stereo not given) | GI50 | > 100 µM (inactive)

Which GI50 value is on record for CNC(=O)NCCCCC(NC(C)=O)C(=O)NCc1ccccc1 (stereo not given) ?
> 100 µM (inactive)

Likewise for Cc1ccc2c(c1)CNc1ccc(C)cc1CN2 ?
> 100 µM (inactive)

Likewise for CCOC(=O)c1[nH]cc(C)c1-c1cccn1-c1ccc(Cl)cc1[N+](=O)[O-] ?
16.2 µM (inactive)

Likewise for COCCCNc1nc(N)c(C#N)c(C#N)c1C#N ?
> 10 µM (inactive)

Likewise for CC(=O)/C=C1\CC(=O)Nc2ccccc2N1 ?
> 100 µM (inactive)

Likewise for O=c1[nH]c2cc3cccnc3c(Cl)c2nc1C(F)(F)F ?
51.3 µM (inactive)

Likewise for Cc1cccc(C)c1NC(=O)/C(=N/NC(N)=S)C(C)C(=O)c1ccc(Cl)cc1 (stereo not given) ?
75.9 µM (inactive)

Likewise for COc1ccc(-n2c(Cn3nnc(-c4cccnc4)n3)nn(C3OC(COC(=O)c4ccccc4)C(OC(=O)c4ccccc4)C3OC(=O)c3ccccc3)c2=S)cc1 (stereo not given) ?
50.9 µM (inactive)

Likewise for CC(C)(C)OC(=O)NC(Cc1ccc(O)cc1)C(=O)NC(CCCCN)C(=O)O (stereo not drawn) (Boc-Tyr-Lys-OH; configuration not given here) ?
47.4 µM (inactive)

Likewise for Cc1ccc(N2C(=O)C3CSCN3C2=O)cc1 (stereo not given) ?
> 100 µM (inactive)

----------
Reported GI50 values are given for each entry in this list.
System: Malme-3M
protocol: NCI tumour cell line growth inhibition, 48 h
Active and inactive are the calls of the source. Cut-off read from the data, not from the text of the source: active = GI50 up to about 1.1 µM and inactive = higher.

Field: example entries. Status: answers known.
compound | value_measured
CC/C(C)=C1\CCC(CN(C)C)C1=O (centres undefined) | 22 µM (inactive)
Clc1ccc(CSc2ncnc3c2ncn3C2CCCCO2)cc1 (centres undefined) | 17.9 µM (inactive)
COc1ccc(OC)c(/C=N/N=C2\C(=O)Nc3c(Cl)cc(Cl)cc32)c1 | > 100 µM (inactive)

Moving on to the next compound.
Any idea what GI50 came out for CCCCCCCCC[C@@H]1CC(=O)OCC2OC(O[C@H](CCCCCCCCC)CC(=O)OCC3OC(O[C@H](CCCCCCCCC)CC(=O)OCC4OC(O1)C(O)C(O)C4O)C(O)C(O)C3O)C(O)C(O)C2O (some centres undefined) on Malme-3M?
8.83 µM (inactive)

----------
Reported GI50 values are given for each entry in this list.
System: Hs-578T
protocol: NCI tumour cell line growth inhibition, 48 h
Activity calls are given as the source filed them. No stated cut-off is given here; in the data, active = GI50 up to about 1.1 µM and inactive = higher.

compound | GI50
CCOC(=O)Nc1ccc2c(c1)N(C(=O)CCN(CC)CC)c1ccccc1S2 | 50.4 µM (inactive)
O=S(=O)(c1ccccc1)c1ccc(/N=N/O)nc1 | > 100 µM (inactive)

Moving on to the next compound.
Any idea what GI50 came out for CC[C@H](C)[C@H]1NC(=O)[C@@H](NC(=O)[C@@H](CC(C)C)N(C)C(=O)C2CCCN2C(=O)[C@H](C)O)[C@@H](C)OC(=O)[C@H](Cc2ccc(OC)cc2)N(C)C(=O)[C@@H]2CCCN2C(=O)[C@H](CCCCNC(=O)OCc2ccccc2)NC(=O)[C@H](C)C(=O)[C@H](C(C)C)OC(=O)C[C@@H]1O (stereo partly drawn) on Hs-578T?
1.41 µM (inactive)

----------
System: OVCAR-4
protocol: NCI tumour cell line growth inhibition, 48 h
Calls of active or inactive are those of the source. No stated cut-off is given here; in the data, active = GI50 up to about 1.1 µM and inactive = higher.
readout_name: GI50

compound | GI50
COC(=O)N/N=C(\c1ccccc1)c1ccc(OC)cc1 | > 100 µM (inactive)
NNC(=S)N/N=C(/C(=O)Nc1ccc(Cl)c(Cl)c1)C(C1OC(=O)c2ccccc21)[N+](=O)[O-] (centres undefined) | > 100 µM (inactive)
Cc1nc(Nc2nc3ccccc3[nH]2)nc(Cl)c1CCCl | > 100 µM (inactive)

Any idea what GI50 came out for COCCCNc1nc(N)c(C#N)c(C#N)c1C#N on OVCAR-4?
> 10 µM (inactive)

Likewise for COC(=O)[C@]1(C)CC[C@]2(C)CC[C@]3(C)C4[C@H]5Oc6c(cc7c(c6C)CCC6[C@@]7(C)CC[C@@]7(C)C8[C@](C)(CCC[C@@]8(C)C(=O)OC)CC[C@]67C)O[C@H]5c5c(cc6c(c5C)O[C@@]5(C)C7=CC=C8[C@@](C)(CC[C@@]9(C)[C@@H]%10C[C@](C)(C(=O)OC)CC[C@]%10(C)CC[C@]89C)C7=CC(=O)[C@@]5(O)O6)[C@]4(C)CC[C@@]3(C)C2C1 (some centres undefined) ?
7.59 µM (inactive)

Likewise for CC(C)=CCOc1ccc(-c2coc3cc4c(c(O)c3c2=O)C=CC(C)(C)O4)cc1 ?
16.7 µM (inactive)

Likewise for O=C(CNc1nccs1)Nn1cnc2ccc(S(=O)(=O)Nc3nccs3)cc2c1=O ?
> 100 µM (inactive)

Likewise for CC(=O)c1cn(-c2ccc(Cl)cc2)c(=O)c2c(N)n[nH]c12 ?
> 100 µM (inactive)

----------
Reported GI50 values are given for each entry in this list.
Test system: UO-31
protocol: NCI tumour cell line growth inhibition, 48 h
Active and inactive are the calls of the source. Cut-off read from the data, not from the text of the source: active = GI50 up to about 1.1 µM and inactive = higher.

Field: example entries. Status: answers known.
molecule | GI50
COC(=O)c1cc(-c2cccn2C)c2c(c1C(=O)OC)c1ccccc1n2C | > 100 µM (inactive)
CCCCCCCCCCCCCCCC[N+](C)(C)CCl | 11.1 µM (inactive)
Nc1ccc(C(=O)CC2(O)C(=O)Nc3ccccc32)cc1 (configuration not stated) | > 100 µM (inactive)
Cn1cc2c3ccccc3nc-2c2ccccc21 [ISOCRYPTOLEPINE] | 1.4 µM (inactive)
C=C1CCCC(C)(C)[C@H]1C/C=C1\CCOC1=O | 16.1 µM (inactive)

Which GI50 value is on record for O=C1CCCC/C1=C(\Br)I ?
17.7 µM (inactive)

Likewise for COC(=O)[C@@H]1N2C(=S)N(c3ccccc3)C(=O)[C@H]2SC1(C)C ?
> 100 µM (inactive)

Likewise for COc1cccc(Nc2nc(C)c([N+](=O)[O-])c(Nc3cccc(OC)c3)n2)c1 ?
9.27 µM (inactive)

Likewise for CCCCNCC(=O)O[C@]1(CC)C(=O)OCc2c1cc1n(c2=O)Cc2cc3ccccc3nc2-1 ?
0.207 µM (active)

Likewise for CO[C@@H]1C[C@H](OC(N)=O)[C@@H]2C=C[C@@H]3/C=C(C)/C=C/[C@@H](C)[C@H]([C@H](C)[C@H](O)[C@@H](C)NC(C)=O)OC(=O)/C=C/C=C(C)\C=C\[C@]3(C)[C@@H]2C1 ?
< 0.01 µM (active)

Likewise for Nc1ncnc2c1ncn2C1CC(O)C(CO)O1 (configuration not stated) ?
> 100 µM (inactive)

Likewise for COc1ccc(CN2C(=O)[C@@H]3Cc4c(OC)c(C)c(OC)c(OC)c4[C@H](/C2=C\c2cc(OC)c(OC)c(C)c2OC)N3C(=O)OC(C)C)cc1 ?
36.5 µM (inactive)

----------
Test system: A498
protocol: NCI tumour cell line growth inhibition, 48 h
Activity calls are given as the source filed them. Cut-off read from the data, not from the text of the source: active = GI50 up to about 1.1 µM and inactive = higher.
Choose the fitting class; nothing outside class 1 = active, class 0 = inactive is accepted.

Look over these answered cases.
molecule | measured_on | label_class
CC1CC2(CCC1OCc1ccccc1)OCCO2 (configuration not stated) | A498 | class 0
O=C(C1OC1c1ccc(F)cc1)C12CC3CC(CC(C3)C1)C2 (configuration not stated) | A498 | class 0
OCCOCn1nncc1Cn1ncc2c(SCc3ccccc3)ncnc21 | A498 | class 0
O=c1cc(/N=N\c2ccc(Cl)c(Cl)c2)[nH]c(=O)[nH]1 | A498 | class 0
COc1cc([C@H]2c3[nH]c4ccccc4c3C[C@H]3COC(=O)N32)cc(OC)c1O | A498 | class 1
COC(=O)c1cc(NC(=O)Cc2c[nH]c3ccccc23)cn1C | A498 | class 0
O=C1CCCC/C1=C(\Br)I | A498 | class 0
COC(=O)CCC(C)[C@H]1CCC2C3C(C[C@H](OC(C)=O)[C@@]21C)[C@@]1(C)CCC2(C[C@H]1C[C@H]3OC(C)=O)OOC1(CCCCCCC1)OO2 (some centres not stated) | A498 | class 0
C=C1[C@H](OC(C)=O)[C@H]2[C@@H](OC(C)=O)[C@@H](C)C[C@]2(C)C(=O)[C@H](C)/C=C/C(C)(C)C(=O)[C@H](OCC(C)C)[C@H]1OC(C)=O | A498 | class 0
CCCCCCCCCCCCCCNCC(OCC)OCC | A498 | class 0

Now let's try a different one.
Would you mind telling me which call this test gave Cc1c(C(=O)OCc2ccccc2)[n+]([O-])c2cc(F)c(F)cc2[n+]1[O-] ?
class 0
